All figures here come from ChEMBL document CHEMBL5154741.

# EXPERIMENTAL_PROTOCOL: Apparent permeability of the compound across bacterial inner membrane mimic POPE/POPG (6:4) in PBS buffer at pH 7.4 incubated for 5 hrs in presence of 1,1-bis({6-[N'-(cyclopropylmethyl)carbamimidamido]hexyl})-3-{8-[N'-(cyclopropylmethyl)carbamimidamido]octyl}-3-octylurea by PAMPA based UV-Vis spectrophotometric analysis
REPORTED_ENDPOINT: Papp at 5 h (×10⁻⁶ cm/s)
Numbers only; they are read as ×10⁻⁶ cm/s.

q: What value of Papp at 5 h has been recorded for this entry: O=C(N[C@H](CO)[C@H](O)c1ccc([N+](=O)[O-])cc1)C(Cl)Cl [CHLORAMPHENICOL]
a: 6.64

###

# EXPERIMENTAL_PROTOCOL: Apparent permeability of the compound across bacterial inner membrane mimic PC-phospholipids in PBS buffer at pH 7.4 incubated for 5 hrs by PAMPA based UV-Vis spectrophotometric analysis
# Assay type: ADME
Decision: Papp at 5 h compared against 2 ×10⁻⁶ cm/s; not below it gives yes (1), below it gives no (0).

# SMILES_STRUCTURE, LABEL
rows = [
    ("N=C(N)NCCCCCCCCN(CCCCCCCCN)C(=O)N(CCCCCCCCN)CCCCCCCCNC(=N)N.O=C(O)C(F)(F)F", "no (0)"),
    ("CCCCCCCCN(CCCCCCCCNC(=N)NCC1CC1)C(=O)N(CCCCCCNC(=N)NCC1CC1)CCCCCCNC(=N)NCC1CC1", "yes (1)"),
]

q: Confirm if Papp at 5 h reported for the compound N=C(NCCCCCCCCNC(N)=O)NCC1CC1.O=C(O)C(F)(F)F is 2 ×10⁻⁶ cm/s or above.
a: yes (1)

q: // inclusive: Papp at 5 h at least 2 ×10⁻⁶ cm/s? input: N=C(N)NCCCCCCCCN(CCCCCCCCNC(=N)NCC1CC1)C(=O)N(CCCCCCCCNC(=N)NCC1CC1)CCCCCCCCNC(=N)NCC1CC1.O=C(O)C(F)(F)F
a: no (0)

q: Determine whether this compound has Papp at 5 h no lower than 2 ×10⁻⁶ cm/s: O=C(N[C@H](CO)[C@H](O)c1ccc([N+](=O)[O-])cc1)C(Cl)Cl
a: no (0)

###

Overview of recorded MIC for various compounds
# Test system: Acinetobacter baumannii
# EXPERIMENTAL_PROTOCOL: Antibacterial activity against Acinetobacter baumannii ATCC 17978 assessed as bacterial growth inhibition incubated for 18 hrs by micro-dilution broth method
# Format: functional

Worked examples follow.
# SMILES_STRUCTURE, ASSAYED_SYSTEM, MIC
records = [
    ("CCCCCCCCN(CCCCCCCCNC(=N)NCC1CC1)C(=O)N(CCCCCCCC)CCCCCCCCNC(=N)NCC1CC1.O=C(O)C(F)(F)F", "Acinetobacter baumannii", "> 128 µg/mL"),
    ("N=C(N)NCCCCCCN(CCCCCCN)C(=O)N(CCCCCCN)CCCCCCNC(=N)N", "Acinetobacter baumannii", "> 128 µg/mL"),
]

We now examine a further compound.
q: // query MIC value for entry CNC(=O)NCCCCCCCCNC(=N)NCC1CC1.O=C(O)C(F)(F)F
a: > 128 µg/mL

###

# Test system: Enterococcus faecalis
# EXPERIMENTAL_PROTOCOL: Antibacterial activity against Enterococcus faecalis ATCC 19433 assessed as bacterial growth inhibition incubated for 18 hrs by micro-dilution broth method
# Type: functional
REPORTED_ENDPOINT: MIC

# SMILES_STRUCTURE, ASSAY_VALUE
measured = [
    ("N=C(N)NCCCCCCN(CCCCCCN)C(=O)N(CCCCCCN)CCCCCCNC(=N)N", "> 128 µg/mL"),
    ("CCCCCCCCN(CCCCCCCC)C(=O)N(CCCCCCCC)CCCCCCCC", "> 128 µg/mL"),
    ("CNC(=O)N(CCCCCCCCNC(=N)NCC1CC1)CCCCCCCCNC(=N)NCC1CC1", "64 µg/mL"),
    ("CCCCCCCCN(CCCCCCCCNC(=N)NCC1CC1)C(=O)N(CCCCCCNC(=N)NCC1CC1)CCCCCCNC(=N)NCC1CC1", "0.5 µg/mL"),
    ("CCCCCCN(CCCCCCCCNC(=N)NCC1CC1)C(=O)N(CCCCCCCCNC(=N)NCC1CC1)CCCCCCCCNC(=N)NCC1CC1", "1 µg/mL"),
    ("CCCCCCCCN(CCCCCCCC)C(=O)N(CCCCCCCCNC(=N)NCC1CC1)CCCCCCCCNC(=N)NCC1CC1.O=C(O)C(F)(F)F", "128 µg/mL"),
]

Continue with the next compound.
q: Field request: MIC | item: CCCCCCCCN(CCCCCCNC(=N)NCC1CC1)C(=O)N(CCCCCCCCNC(=N)NCC1CC1)CCCCCCCCNC(=N)NCC1CC1
a: 2 µg/mL
